tested on: Staphylococcus aureus; test: In vivo efficacy of compounds administered subcutaneously in mouse intraperitoneal infections; conditions: sc, 168 h; mouse i.p. Staphylococcus aureus infection; subcutaneous; dosed at infection and 4 h post-infection; 7 days; read-out: ED50 (50 percent effective dose)
result type: ED50 (mg/kg)

[[record]]
compound = "CC(=O)NCC1CN(c2ccc(Cl)cc2)C(=O)O1 (stereo not drawn) [Example 87]"
relation_symbol = "="
endpoint_result = 10.5

[[record]]
compound = "CC(=O)N(CC1CN(c2ccc(S(C)(=O)=O)cc2)C(=O)O1)C1CCCCC1 (racemic) [Example 124]"
relation_symbol = "="
endpoint_result = 16.3

[[record]]
compound = "CC(=O)NCC1CN(c2ccc(C(F)(F)F)cc2)C(=O)O1 (stereo not drawn) [Example 41]"
relation_symbol = "="
endpoint_result = 6.1

[[record]]
compound = "CC(=O)NC[C@H]1CN(c2ccc([S@+](C)[O-])cc2)C(=O)O1 [Example 181]"
relation_symbol = "="
endpoint_result = 1

[[record]]
compound = "COC(=O)NCC1CN(c2ccc(Cl)cc2)C(=O)O1 (stereo not drawn) [Example 84]"
relation_symbol = "="
endpoint_result = 80.5

[[record]]
compound = "CC(=O)c1ccc(N2CC(CNC(=O)CN)OC2=O)cc1 (stereo not drawn) [Example 176]"
relation_symbol = "="
endpoint_result = 11.2

[[record]]
compound = "CC(=O)NCC1CN(c2ccc(C(C)=NNC(C)=O)cc2)C(=O)O1 (stereo not drawn) [Example 36]"
relation_symbol = "="
endpoint_result = 7.4

[[record]]
compound = "CC(=O)NCC1CN(c2ccc(I)cc2)C(=O)O1 (single isomer, unassigned) [Example 145]"
relation_symbol = "="
endpoint_result = 12.2

[[record]]
compound = "CCC(=O)NCC1CN(c2ccc(C(C)=O)cc2)C(=O)O1 (single isomer, unassigned) [Example 171]"
relation_symbol = "="
endpoint_result = 1.6

[[record]]
compound = "CC(C)c1ccc(N2CC(CNC(=O)CN)OC2=O)cc1 (racemic) [Example 157]"
relation_symbol = "="
endpoint_result = 19.6

[[record]]
compound = "CCCCCCN(CC1CN(c2ccc(S(C)(=O)=O)cc2)C(=O)O1)C(=O)OC (racemic) [Example 123]"
relation_symbol = "="
endpoint_result = 46.6

[[record]]
compound = "CCCCc1ccc(N2CC(CNC(C)=O)OC2=O)cc1 (stereo not drawn) [Example 81]"
relation_symbol = "="
endpoint_result = 27.9

[[record]]
compound = "CON=C(C)c1ccc(N2CC(CNC(C)=O)OC2=O)cc1 (single isomer, unassigned) [Example 160]"
relation_symbol = "<"
endpoint_result = 4.4

[[record]]
compound = "CC(=O)NCC1CN(c2ccc(C(C)(O)CO)cc2)C(=O)O1 (stereo not drawn) [Example 102]"
relation_symbol = "="
endpoint_result = 9

[[record]]
compound = "CSc1ccc(N2CC(CNC(=O)C3CC3)OC2=O)cc1 (stereo not drawn) [Example 71]"
relation_symbol = "="
endpoint_result = 69.3

[[record]]
compound = "CC(=O)NCC1CN(c2ccc(C(C)=O)cc2)C(=O)O1 (single isomer, unassigned) [Example 129]"
relation_symbol = "="
endpoint_result = 0.5

[[record]]
compound = "CCc1ccc(N2CC(CNC(=O)OC)OC2=O)cc1 (stereo not drawn) [Example 83]"
relation_symbol = "="
endpoint_result = 6.6

[[record]]
compound = "CS(=O)(=O)NCC1CN(c2ccc(S(C)(=O)=O)cc2)C(=O)O1 (single isomer, unassigned) [Example 25]"
relation_symbol = "="
endpoint_result = 83.6

